experiment: Displacement of [3H]colchicine from tubulin (unknown origin); design: species or system Homo sapiens
property.label: Ki (µM)
Reply with just the number (in µM).

*Q* Look at this molecule and give its reported Ki. COc1cc([C@H]2CN=C(c3ccc4c(ccn4C)c3)O2)cc(OC)c1OC
*A* 0.65

* * *

assay: Oral bioavailability in dog; type: ADME, organism-based, Canis lupus familiaris; settings: in vivo
property.label: bioavailability

*Q* Look at this compound and give its reported bioavailability. COc1cc([C@H]2CN=C(c3ccc4c(ccn4C)c3)O2)cc(OC)c1OC
*A* 6.5 to 18.6%

* * *

assay: Oral bioavailability in rat; format: ADME, organism-based; details: in vivo
property.label: bioavailability

*Q* Look at this molecule and give its reported bioavailability. COc1cc([C@H]2CN=C(c3ccc4c(ccn4C)c3)O2)cc(OC)c1OC
*A* 6.5 to 18.6%

* * *

assay: Toxicity in mouse implanted with mouse M5076 cells; assay type: organism-based
property.label: MTD
Show the value, then the unit it is measured in.

*Q* Look at this molecule and give its reported MTD. COc1cc([C@H]2CN=C(c3ccc4c(ccn4C)c3)O2)cc(OC)c1OC
*A* 100 mg/kg/day

* * *

test: Oral bioavailability in monkey; assay type: ADME, organism-based, Macaca mulatta; details: rhesus monkey, in vivo
property.label: bioavailability

*Q* Look at this compound and give its reported bioavailability. COc1cc([C@H]2CN=C(c3ccc4c(ccn4C)c3)O2)cc(OC)c1OC
*A* 6.5 to 18.6%

* * *

test: Cytotoxicity against human M14 cells assessed as growth inhibition after 72 hrs by MTS assay; assay type: functional, cell-based; settings: M14, 72 h
pIC50: −log10 of the molar value.
Lab note: anything with pIC50 at or over 5 counts as MET; the rest go in NOT MET.

*Q* Reported pIC50 at or above 5? Cc1c2c(cn1Cc1ccccc1)CCc1cnoc1-2
*A* NOT MET

*Q* Reported pIC50 at or above 5? COc1cc(Cn2cc3c(c2)-c2oncc2CC3)cc(OC)c1
*A* MET

*Q* Reported pIC50 at or above 5? COc1ccc(-n2cc3c(c2)-c2oncc2CC3)cc1
*A* NOT MET

*Q* Reported pIC50 at or above 5? COc1ccc(OC)c(Cn2cc3c(c2)-c2oncc2CC3)c1
*A* NOT MET

*Q* Reported pIC50 at or above 5? CCOC(=O)c1c2c(c(C)n1C)-c1oncc1CC2
*A* NOT MET

*Q* Reported pIC50 at or above 5? COc1ccc(Cn2cc3c(c2)-c2oncc2CC3)cc1OC
*A* MET

*Q* Reported pIC50 at or above 5? COc1cccc(Cn2cc3c(c2)-c2oncc2CC3)c1
*A* MET

*Q* Reported pIC50 at or above 5? Cn1cc2c(c1)-c1oncc1CC2
*A* NOT MET

---
*Q* Reported pIC50 at or above 5? Cc1ccc(Cn2cc3c(c2)-c2oncc2CC3)cc1
*A* NOT MET

*Q* Reported pIC50 at or above 5? c1ccc(-n2cc3c(c2)-c2oncc2CC3)cc1
*A* NOT MET

*Q* Reported pIC50 at or above 5? CCOC(=O)c1c2c(c(C)n1Cc1ccccc1)-c1oncc1CC2
*A* NOT MET

* * *

assay: Cytotoxicity against human JR8 cells assessed as growth inhibition after 72 hrs by MTS assay; format: functional, cell-based; conditions: JR8, 72 h
property.label: pIC50
Keep it numeric: pIC50 is minus log10 of the concentration in mol/L.

*Q* Look at this molecule and give its reported pIC50. COc1cc(Cn2cc3c(c2)-c2oncc2CC3)cc(OC)c1
*A* 6.64

*Q* Look at this molecule and give its reported pIC50. COc1ccc(Cn2cc3c(c2)-c2oncc2CC3)cc1OC
*A* 6.07

*Q* Look at this molecule and give its reported pIC50. Cn1cc2c(c1)-c1oncc1CC2
*A* 4.23

---
*Q* Look at this molecule and give its reported pIC50. COc1ccc(OC)c(Cn2cc3c(c2)-c2oncc2CC3)c1
*A* 4.72

* * *

test: Oral bioavailability in mouse; format: ADME, organism-based; conditions: in vivo
property.label: bioavailability

*Q* Look at this compound and give its reported bioavailability. COc1cc([C@H]2CN=C(c3ccc4c(ccn4C)c3)O2)cc(OC)c1OC
*A* 6.5 to 18.6%

* * *

assay: Cytotoxicity against human JR8 cells assessed as growth inhibition after 72 hrs by MTS assay; assay type: functional, cell-based; conditions: JR8, 72 h
The following molecules are listed with their measured IC50 values.

*Q* Look at this molecule and give its reported IC50. COc1cc(Cn2cc3c(c2)-c2oncc2CC3)cc(OC)c1OC
*A* 0.63 µM

---
*Q* Look at this molecule and give its reported IC50. Cc1c2c(cn1C)CCc1cnoc1-2
*A* > 100 µM

*Q* Look at this molecule and give its reported IC50. COc1ccccc1Cn1cc2c(c1)-c1oncc1CC2
*A* 16.2 µM

*Q* Look at this molecule and give its reported IC50. COc1cccc(Cn2cc3c(c2)-c2oncc2CC3)c1
*A* 0.96 µM

*Q* Look at this molecule and give its reported IC50. COc1ccc(Cn2cc3c(c2)-c2oncc2CC3)cc1
*A* 9.15 µM

*Q* Look at this molecule and give its reported IC50. COc1ccc(-n2cc3c(c2)-c2oncc2CC3)cc1
*A* 61.6 µM

*Q* Look at this molecule and give its reported IC50. CCOC(=O)c1c2c(c(C)n1Cc1ccccc1)-c1oncc1CC2
*A* > 100 µM

*Q* Look at this molecule and give its reported IC50. Cc1ccc(Cn2cc3c(c2)-c2oncc2CC3)cc1
*A* > 100 µM

*Q* Look at this molecule and give its reported IC50. COc1cccc(Cn2cc3c(c2)-c2oncc2CC3)c1OC
*A* > 100 µM

*Q* Look at this molecule and give its reported IC50. CCOC(=O)c1c2c(c(C)n1C)-c1oncc1CC2
*A* > 100 µM

* * *

test: Cytotoxicity against human M14 cells assessed as growth inhibition after 72 hrs by MTS assay; assay type: functional, cell-based; details: M14, 72 h
The following compounds are listed with their measured IC50 values.
Reply with just the number (in µM).

Solved cases (3 shown):
*Q* Look at this compound and give its reported IC50. COc1ccc(Cn2cc3c(c2)-c2oncc2CC3)cc1
*A* 12.5

*Q* Look at this compound and give its reported IC50. COc1cc(Cn2cc3c(c2)-c2oncc2CC3)cc(OC)c1OC
*A* 0.89

*Q* Look at this compound and give its reported IC50. c1ccc(Cn2cc3c(c2)-c2oncc2CC3)cc1
*A* 6.88

Please turn your attention to the following entry.
*Q* Look at this compound and give its reported IC50. COc1ccccc1Cn1cc2c(c1)-c1oncc1CC2
*A* 20.5

* * *

assay: Cytotoxicity against human JR8 cells assessed as growth inhibition after 72 hrs by MTS assay; assay type: functional, cell-based; details: JR8, 72 h
property.label: pIC50
Keep it numeric: pIC50 is minus log10 of the concentration in mol/L.

*Q* Look at this compound and give its reported pIC50. c1ccc(Cn2cc3c(c2)-c2oncc2CC3)cc1
*A* 5.29

Please turn your attention to the following entry.
*Q* Look at this compound and give its reported pIC50. c1ccc(-n2cc3c(c2)-c2oncc2CC3)cc1
*A* 4.23

* * *

assay: Cytotoxicity against human M14 cells assessed as growth inhibition after 72 hrs by MTS assay; format: functional, cell-based; conditions: M14, 72 h
The following compounds are listed with their measured IC50 values.

*Q* Look at this compound and give its reported IC50. CCOC(=O)c1c2c(c(C)n1Cc1ccc(OC)cc1)-c1oncc1CC2
*A* > 100 µM

*Q* Look at this compound and give its reported IC50. COc1cccc(Cn2cc3c(c2)-c2oncc2CC3)c1OC
*A* > 100 µM

Please turn your attention to the following entry.
*Q* Look at this compound and give its reported IC50. Cc1c2c(cn1C)CCc1cnoc1-2
*A* > 100 µM
